As a worked illustration, we turn to pIC50 data collected for Sucrase-isomaltase, intestinal (Rattus norvegicus, UniProt P23739).
Just so you know, pIC50 here is -log10 of the concentration in molar units; reply with that number alone.

Oc1cc(O)c2c(c1)O[C@H](c1ccc(O)c(O)c1)[C@H](O)C2 [(-)-EPICATECHIN]	3.19

// switching to the query compound
// compound "Oc1cc(O)c2c(c1)O[C@@]1(c3ccc(O)c(O)c3)Oc3cc(O)c4c(c3[C@@H]2[C@H]1O)O[C@@H](c1ccc(O)c(O)c1)[C@H](O)[C@H]4c1c(O)cc(O)c2c1O[C@H](c1ccc(O)c(O)c1)[C@H](O)C2" , assay Sucrase-isomaltase, intestinal (Rattus norvegicus, UniProt P23739), pIC50 value: 3.40
